Tested on: Gemella morbillorum
Assay: Antibacterial activity against Gemella morbillorum obtained from complicated skin and skin structure infections […]
Assay type: functional
Label key: satisfied means MIC90 under 4 µg/mL; not satisfied means MIC90 of 4 µg/mL or more.

Solved cases below.
CPD_SMILES	GROUP
Nc1nc(/C(=N/O)C(=O)N[C@@H]2C(=O)N3C(C(=O)O)=C(/C=C4\CCN([C@@H]5CCNC5)C4=O)CS[C@H]23)ns1	satisfied
CN[C@H](CC(C)C)C(=O)N[C@H]1C(=O)N[C@@H](CC(N)=O)C(=O)N[C@H]2C(=O)N[C@H]3C(=O)N[C@H](C(=O)N[C@H](C(=O)O)c4cc(O)cc(O)c4-c4cc3ccc4O)[C@H](O)c3ccc(c(Cl)c3)Oc3cc2cc(c3O[C@@H]2O[C@H](CO)[C@@H](O)[C@H](O)[C@H]2O[C@H]2C[C@](C)(N)[C@H](O)[C@H](C)O2)Oc2ccc(cc2Cl)[C@H]1O	satisfied
CC(=O)NC[C@H]1CN(c2ccc(N3CCOCC3)c(F)c2)C(=O)O1	satisfied
CC(C)(O/N=C(\C(=O)N[C@@H]1C(=O)N2C(C(=O)[O-])=C(C[n+]3ccccc3)CS[C@H]12)c1csc(N)n1)C(=O)O	not satisfied
Cc1onc(-c2ccccc2)c1C(=O)N[C@@H]1C(=O)N2[C@@H]1SC(C)(C)[C@@H]2C(=O)O	not satisfied

Task: Does this compound meet the criterion MIC90 < 4 µg/mL? `CC1(C)S[C@@H]2[C@H](NC(=O)Cc3ccccc3)C(=O)N2[C@H]1C(=O)O`
Output: satisfied

Task: Does this compound meet the criterion MIC90 < 4 µg/mL? `CC[C@H]1OC(=O)[C@H](C)[C@@H](O[C@H]2C[C@@](C)(OC)[C@@H](O)[C@H](C)O2)[C@H](C)[C@@H](O[C@@H]2O[C@H](C)C[C@H](N(C)C)[C@H]2O)[C@](C)(O)C[C@@H](C)C(=O)[C@H](C)[C@@H](O)[C@]1(C)O`
Output: not satisfied

###

Tested on: Salmonella
Assay: Antibacterial activity against Salmonella spp. obtained from complicated skin and skin structure infections by agar dilution method
Type: functional
So I've got a bunch of compounds here, and I need their MIC50 values.
Give bare numbers, in µg/mL.

Example compounds with recorded MIC50:
COMPOUND	UNIT_INFO	MIC50
CO/N=C(\C(=O)N[C@@H]1C(=O)N2C(C(=O)[O-])=C(C[N+]3(C)CCCC3)CS[C@H]12)c1csc(N)n1	µg/mL	0.06
O=C(O)c1cn(C2CC2)c2cc(N3CCNCC3)c(F)cc2c1=O [CIPROFLOXACIN]	µg/mL	0.015
C[C@@H](O)[C@H]1C(=O)N2C(C(=O)O)=C(S[C@@H]3CN[C@H](C(=O)N(C)C)C3)[C@H](C)[C@H]12 [MEROPENEM]	µg/mL	0.03
CC(C)(O/N=C(\C(=O)N[C@@H]1C(=O)N2C(C(=O)[O-])=C(C[n+]3ccccc3)CS[C@H]12)c1csc(N)n1)C(=O)O [CEFTAZIDIME]	µg/mL	0.12
CO/N=C(\C(=O)N[C@@H]1C(=O)N2C(C(=O)O)=C(CSc3nc(=O)c(O)nn3C)CS[C@H]12)c1csc(N)n1 [CEFTRIAXONE]	µg/mL	0.06
NCC[C@H](O)C(=O)N[C@@H]1C[C@H](N)[C@@H](O[C@H]2O[C@H](CN)[C@@H](O)[C@H](O)[C@H]2O)[C@H](O)[C@H]1O[C@H]1O[C@H](CO)[C@@H](O)[C@H](N)[C@H]1O [AMIKACIN]	µg/mL	2

Task: Specify reported MIC50 for the compound shown: Nc1nc(/C(=N/O)C(=O)N[C@@H]2C(=O)N3C(C(=O)O)=C(/C=C4\CCN([C@@H]5CCNC5)C4=O)CS[C@H]23)ns1 [CEFTOBIPROLE]
Output: 0.06

###

Tested on: Citrobacter braakii
Assay: Antibacterial activity against Citrobacter braakii obtained from complicated skin and skin structure infections by agar dilution method
Format: functional
So I've got a bunch of compounds here, and I need their MIC90 values.
Give bare numbers, in µg/mL.

In [3]: df
Out[3]:
                                   compound  value_observed
0  Nc1nc(/C(=N/O)C(=O)N[C@@H]2C(=O)N3C(C(=O)O)=C(/C=C4\CCN([C@@H]5CCNC5)C4=O)CS[C@H]23)ns1 [CEFTOBIPROLE]              32

Task: Specify reported MIC90 for the compound shown: `CO/N=C(\C(=O)N[C@@H]1C(=O)N2C(C(=O)[O-])=C(C[N+]3(C)CCCC3)CS[C@H]12)c1csc(N)n1`
Output: 4

###

Test system: Staphylococcus cohnii
Experiment: Antibacterial activity against coagulase-negative Staphylococcus cohnii obtained from complicated skin and skin structure infections by agar dilution method
Assay type: functional
READOUT_KIND: MIC90 (µg/mL)
Numbers only, in µg/mL.

In [3]: df
Out[3]:
                                 cpd_smiles     measurement_target  readout_kind  unit_info  value_observed
0  C[C@H]1COc2c(N3CCN(C)CC3)c(F)cc3c(=O)c(C(=O)O)cn1c23.C[C@H]1COc2c(N3CCN(C)CC3)c(F)cc3c(=O)c(C(=O)O)cn1c23.O  Staphylococcus cohnii         MIC90      µg/mL               8

Here's the next entry for you.
Task: Specify reported MIC90 for the compound shown: `CCC[C@@H]1C[C@@H](C(=O)N[C@@H]([C@H]2O[C@H](SC)[C@H](O)[C@@H](O)[C@H]2O)[C@H](C)Cl)N(C)C1`
Output: 1

###

System: Pseudomonas fluorescens
Assay: Antibacterial activity against Pseudomonas fluorescens obtained from complicated skin and skin structure infections by agar dilution method
Type: functional
So I've got a bunch of compounds here, and I need their MIC90 values.

>>> df
                                 cpd_smiles  value_observed
0  CC(C)(O/N=C(\C(=O)N[C@@H]1C(=O)N2C(C(=O)[O-])=C(C[n+]3ccccc3)CS[C@H]12)c1csc(N)n1)C(=O)O     > 128 µg/mL

Go through the items and report each one's MIC90.
1. C[C@@H](O)[C@H]1C(=O)N2C(C(=O)O)=C(S[C@@H]3CN[C@H](C(=O)N(C)C)C3)[C@H](C)[C@H]12
2. Nc1nc(/C(=N/O)C(=O)N[C@@H]2C(=O)N3C(C(=O)O)=C(/C=C4\CCN([C@@H]5CCNC5)C4=O)CS[C@H]23)ns1

Output:
["> 32 µg/mL", "> 64 µg/mL"]

###

System: Aerococcus viridans
Experiment: Antibacterial activity against Aerococcus viridans obtained from complicated skin and skin structure infections by agar dilution method
Format: functional
So I've got a bunch of molecules here, and I need their MIC50 values.
Give bare numbers, in µg/mL.

Example molecules with recorded MIC50:
MOLECULE	UNIT_INFO	MIC50
CN[C@H](CC(C)C)C(=O)N[C@H]1C(=O)N[C@@H](CC(N)=O)C(=O)N[C@H]2C(=O)N[C@H]3C(=O)N[C@H](C(=O)N[C@H](C(=O)O)c4cc(O)cc(O)c4-c4cc3ccc4O)[C@H](O)c3ccc(c(Cl)c3)Oc3cc2cc(c3O[C@@H]2O[C@H](CO)[C@@H](O)[C@H](O)[C@H]2O[C@H]2C[C@](C)(N)[C@H](O)[C@H](C)O2)Oc2ccc(cc2Cl)[C@H]1O [VANCOMYCIN]	µg/mL	1
CC(C)(O/N=C(\C(=O)N[C@@H]1C(=O)N2C(C(=O)[O-])=C(C[n+]3ccccc3)CS[C@H]12)c1csc(N)n1)C(=O)O [CEFTAZIDIME]	µg/mL	1
CC(=O)NC[C@H]1CN(c2ccc(N3CCOCC3)c(F)c2)C(=O)O1 [LINEZOLID]	µg/mL	1
CCC[C@@H]1C[C@@H](C(=O)N[C@@H]([C@H]2O[C@H](SC)[C@H](O)[C@@H](O)[C@H]2O)[C@H](C)Cl)N(C)C1 [CLINDAMYCIN]	µg/mL	1

Task: Specify reported MIC50 for the molecule shown: Cc1onc(-c2ccccc2)c1C(=O)N[C@@H]1C(=O)N2[C@@H]1SC(C)(C)[C@@H]2C(=O)O [OXACILLIN]
Output: 0.25

###

So I've got a bunch of compounds here, and I need their MIC50 values.
System: Streptococcus constellatus
Experiment: Antibacterial activity against Streptococcus constellatus obtained from complicated skin and skin structure infections by agar dilution method
Format: functional
Answers are plain numbers, in µg/mL.

Go through the items and report each one's MIC50.
1. Cc1onc(-c2ccccc2)c1C(=O)N[C@@H]1C(=O)N2[C@@H]1SC(C)(C)[C@@H]2C(=O)O
2. CC(=O)NC[C@H]1CN(c2ccc(N3CCOCC3)c(F)c2)C(=O)O1
3. CN[C@H](CC(C)C)C(=O)N[C@H]1C(=O)N[C@@H](CC(N)=O)C(=O)N[C@H]2C(=O)N[C@H]3C(=O)N[C@H](C(=O)N[C@H](C(=O)O)c4cc(O)cc(O)c4-c4cc3ccc4O)[C@H](O)c3ccc(c(Cl)c3)Oc3cc2cc(c3O[C@@H]2O[C@H](CO)[C@@H](O)[C@H](O)[C@H]2O[C@H]2C[C@](C)(N)[C@H](O)[C@H](C)O2)Oc2ccc(cc2Cl)[C@H]1O

Output:
0.12
1
0.5
